Cited source for all entries: patent US11254663B2

biological target: FXR (Homo sapiens (Human), UniProt Q96RI1); experiment: FXR EC50 (FXR agonist potency reported with each Example); format: cell-based
Sequence (Q96RI1 262-486): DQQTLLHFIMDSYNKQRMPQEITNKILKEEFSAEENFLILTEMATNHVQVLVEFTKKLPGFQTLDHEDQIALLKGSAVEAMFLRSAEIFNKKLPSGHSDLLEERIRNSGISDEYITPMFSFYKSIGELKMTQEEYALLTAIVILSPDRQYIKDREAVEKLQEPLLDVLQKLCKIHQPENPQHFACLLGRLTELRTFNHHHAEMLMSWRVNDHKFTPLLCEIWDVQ
pEC50: −log10 of the molar value.
value-kind: pEC50

Below: 2 compounds and their reported pEC50.
* CCOc1nnc(-c2cccc(N(CC34CCC(c5nc(C6CC6)no5)(CC3)CC4)C(=O)C3CCC3)c2)o1 [Example 54] | 6.67
* Cn1nc(C23CCC(CN(C(=O)C45CC(F)(C4)C5)c4cccc(-c5noc(C(C)(C)C)n5)c4)(CC2)CC3)cc1C1CC1 [Example 167] | 7.16

a = O=C(N(CC12CCC(c3nc(C4CC4)no3)(CC1)CC2)c1cccc(-c2cc(C3CC3)on2)c1)C12CC(F)(C1)C2 [Example 57]
b = COc1cc(-c2cccc(N(CC34CCC(c5nc(C6CCOCC6)no5)(CC3)CC4)C(=O)C34CC(F)(C3)C4)c2)ccn1 [Example 227]
Exam item: For the pair a and b , which entry has the numerically smaller recorded pEC50? Pick one and reply with its label.
Marked response: b
(b: 6.42, a: 7.70)

----------
molecular target: FXR (Homo sapiens (Human)); experiment: transient human FXR/Gal4-luciferase reporter assay; format: cell-based; details: Gal4-hFXR fusion construct, HEK293 reporter cells; response relative to 8 μM GW-4064
value-kind: EC50 (µM)

1 = COc1ncc(C23CCC(CN(C(=O)C45CC(F)(C4)C5)c4cccc(-c5ccc6nc(C)sc6c5)c4)(CC2)CO3)cn1
2 = CC(C)(F)c1nc(C23CCC(CN(C(=O)OC4CC(F)(F)C4)c4cc(-c5ccc(OC(F)F)cc5)c(F)cn4)(CC2)CC3)no1
Exam item: For the pair 1 and 2 , which entry has the numerically smaller recorded EC50? Pick one and reply with its label.
Marked response: 2
(2: 0.16 µM, 1: 0.561 µM)

----------
biological target: FXR (Homo sapiens (Human), UniProt Q96RI1); experiment: FXR EC50 (FXR agonist potency reported with each Example); format: cell-based
value-kind: EC50 (µM)
Give a bare numeral; the unit µM is implied.

- O=C([C@H]1C[C@](O)(C(F)(F)F)C1)N(CC12CCC(c3nc(C4CC4)no3)(CC1)CC2)c1cccc(-c2nc(C(F)F)co2)c1: 0.613
- CC(C)(C)c1nc(C23CCC(CN(C(=O)C45CC(F)(C4)C5)c4cccc(-c5nc(C6CC6)no5)c4)(CC2)CC3)no1: 0.015
- CC1(NC(=O)N(CC23CCC(c4nc(C5CC5)no4)(CC2)CC3)c2cccc(-c3nc(C4CC4)no3)c2)CC1: 0.265
- CCCc1ncc(-c2cccc(N(CC34CCC(c5nc(C6CC6)no5)(CC3)CC4)C(=O)C3CC(F)(F)C3)c2)o1: 0.148
- Cn1nc(-c2cccc(N(CC34CCC(c5nc(C6CC6)no5)(CC3)CC4)C(=O)C3CC(C(F)F)C3)c2)cc1C1CC1 (stereo not drawn): 0.607

Please look at the following molecule next.
Exam item: Give recorded EC50 with FXR (Homo sapiens (Human), UniProt Q96RI1) for the following molecule: O=C(C1CC(C(F)F)C1)N(CC12CCC(c3nc(C4CC4)no3)(CC1)CC2)c1cccc(-c2cc(C3CC3)on2)c1 (stereo not drawn)
Marked response: 0.039
